From: patent US20250320202A1

System: HCT116 MTAP knockout cells
Experiment: Human colon cancer HCT116 cell proliferation inhibition test (CellTiter-Glo, 6 days), MTAP knockout cells
Format: cell-based
Conditions: HCT-116, 144 h
pIC50: −log10 of the molar value.
Measured pIC50 by item

{"molecule": "Cn1cc(N(C(=O)c2ccc3nc(N)c4ccncc4c3c2)[C@@H]2CCc3cc(C(F)(F)F)ccc32)cn1", "tested-target": "HCT116 MTAP knockout cells", "pIC50": 7.30}
{"molecule": "Nc1nc2ccc(C(=O)N(CC3CC3)C3CCc4nc(C(F)(F)F)ccc43)cc2c2cnccc12 (stereo not shown)", "tested-target": "HCT116 MTAP knockout cells", "pIC50": 6.94}
{"molecule": "Nc1nc2ccc(C(=O)N(CC3CC3)C3CCc4cc(C(F)(F)F)ccc43)cc2c2cnccc12 (stereo not shown)", "tested-target": "HCT116 MTAP knockout cells", "pIC50": 7.44}
{"molecule": "Cn1cc(N(C(=O)c2cc3c(cc2F)nc(N)c2cnn(C)c23)[C@H]2COc3cc(C(F)(F)F)ccc32)cn1", "tested-target": "HCT116 MTAP knockout cells", "pIC50": 7.09}
{"molecule": "Cn1ccc(N(C(=O)c2cc3c(cc2F)nc(N)c2cnn(C)c23)C2CCc3cc(C(F)(F)F)ccc32)n1 (stereo not shown)", "tested-target": "HCT116 MTAP knockout cells", "pIC50": 9.52}
{"molecule": "Nc1nc2ccc(C(=O)N(CC3CC3)[C@@H]3CCc4cc(C(F)(F)F)ccc43)cc2c2cnccc12", "tested-target": "HCT116 MTAP knockout cells", "pIC50": 7.46}
{"molecule": "Cn1ncc2c(N)nc3cc(F)c(C(=O)N(CC(F)(F)F)[C@@H]4COc5cc(C(F)(F)F)ccc54)cc3c21", "tested-target": "HCT116 MTAP knockout cells", "pIC50": 7.55}

====

System: HCT116 MTAP knockout cells
Assay: Human colon cancer HCT116 cell proliferation inhibition test (CellTiter-Glo, 6 days), MTAP knockout cells
Assay type: cell-based
Settings: HCT-116, 144 h
endpoint-name: IC50 (nM)

{"compound": "CN(C(=O)c1ccc2nc(N)c3ccncc3c2c1)[C@@H]1COc2cc(C(F)(F)F)ccc21 [Reference Compound 2, reference compound]", "endpoint-name": "IC50", "measured": 25}
{"compound": "Cn1cc(N(C(=O)c2cc3c(cc2F)nc(N)c2cnn(C)c23)[C@@H]2COc3nc(C(F)(F)F)ccc32)cn1", "endpoint-name": "IC50", "measured": 1}
{"compound": "C[C@H](c1ncccn1)N(C(=O)c1cc2c3c(c(N)nc2cc1F)COC3)[C@@H]1CCc2cc(C(F)(F)F)ccc21", "endpoint-name": "IC50", "measured": 118}
{"compound": "Cc1cc2nc(N)c3ccncc3c2cc1C(=O)N(CC1CC1)[C@@H]1COc2nc(C(F)(F)F)ccc21", "endpoint-name": "IC50", "measured": 13}
{"compound": "Cc1cc2nc(N)c3ccncc3c2cc1C(=O)N(CC1CC1)[C@@H]1COc2cc(C(F)(F)F)ccc21", "endpoint-name": "IC50", "measured": 33}
{"compound": "Cc1cc2nc(N)c3ccncc3c2cc1C(=O)N(CC1CC1)[C@@H]1CCc2nc(C(F)(F)F)ccc21", "endpoint-name": "IC50", "measured": 9}
{"compound": "Cn1cc(N(C(=O)c2cc3c4c(c(N)nc3cc2F)COC4)[C@@H]2COc3cc(C(F)(F)F)ccc32)cn1", "endpoint-name": "IC50", "measured": 2}
{"compound": "CCN(C(=O)c1cc2c(cc1F)nc(N)c1cnn(C)c12)C1CCc2cc(C(F)(F)F)ccc21 (stereo not shown) [Reference Compound 1, reference compound]", "endpoint-name": "IC50", "measured": 54}
{"compound": "C[C@H]1OCc2c1c(N)nc1cc(F)c(C(=O)N(c3cnn(C)c3)[C@@H]3COc4nc(C(F)(F)F)ccc43)cc21", "endpoint-name": "IC50", "measured": 4}
{"compound": "COC[C@@H](C)N(C(=O)c1ccc2nc(N)c3ccncc3c2c1)[C@H]1CCc2cc(C(F)(F)F)ccc21", "endpoint-name": "IC50", "measured": 6930}
{"compound": "C[C@H]1OCc2c1c(N)nc1cc(F)c(C(=O)N(c3cnn(C)c3)[C@@H]3COc4cc(C(F)(F)F)ccc43)cc21", "endpoint-name": "IC50", "measured": 2}
{"compound": "COC[C@@H](C)N(C(=O)c1cc2c3c(c(N)nc2cc1F)COC3)[C@@H]1CCc2cc(C(F)(F)F)ccc21", "endpoint-name": "IC50", "measured": 485}
{"compound": "C[C@@H](c1ncccn1)N(C(=O)c1cc2c3c(c(N)nc2cc1F)COC3)[C@@H]1CCc2cc(C(F)(F)F)ccc21", "endpoint-name": "IC50", "measured": 640}
{"compound": "Cn1cc(N(C(=O)c2ccc3nc(N)c4ccncc4c3c2)C2CCc3cc(C(F)(F)F)ccc32)cn1 (stereo not shown)", "endpoint-name": "IC50", "measured": 44}
{"compound": "Cn1cc(N(C(=O)c2ccc3nc(N)c4c(cnn4C)c3c2)[C@@H]2COc3cc(C(F)(F)F)ccc32)cn1", "endpoint-name": "IC50", "measured": 50}
{"compound": "Nc1nc2ccc(C(=O)N(c3cscn3)[C@@H]3CCc4cc(C(F)(F)F)ccc43)cc2c2cnccc12", "endpoint-name": "IC50", "measured": 16}
